# system_name: α1A-adrenoceptor (α1A-AR) (Homo sapiens)
# Sequence (P35348 whole entry): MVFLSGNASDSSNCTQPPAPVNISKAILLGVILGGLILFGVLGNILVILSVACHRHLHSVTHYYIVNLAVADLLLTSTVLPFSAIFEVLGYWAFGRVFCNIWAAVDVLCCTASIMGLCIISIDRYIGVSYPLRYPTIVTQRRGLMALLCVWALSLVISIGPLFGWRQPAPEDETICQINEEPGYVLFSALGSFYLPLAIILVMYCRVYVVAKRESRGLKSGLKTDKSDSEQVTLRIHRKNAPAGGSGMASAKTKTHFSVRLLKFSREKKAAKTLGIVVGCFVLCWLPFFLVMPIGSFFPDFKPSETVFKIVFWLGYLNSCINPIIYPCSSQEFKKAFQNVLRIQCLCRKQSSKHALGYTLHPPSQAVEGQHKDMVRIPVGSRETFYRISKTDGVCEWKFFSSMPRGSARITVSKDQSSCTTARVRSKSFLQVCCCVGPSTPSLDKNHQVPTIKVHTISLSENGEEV
# test_name: Radioligand displacement, α1A
# Assay type: binding
# condition: read-out: Ki
pKi: −log10 of the molar value.
readout: pKi

// recorded pKi for `CC(C)[C@@H](CN1CC[C@@](C)(c2cccc(O)c2)[C@@H](C)C1)NC(=O)[C@H]1Cc2ccc(O)cc2CN1` : ≤ 5.00

* * *

# system_name: H2 (Homo sapiens, UniProt P25021)
# test_name: Radioligand displacement, H2
# condition: Ki, [3H] radioligand Tiotidine; Human, Cloned
readout: pKi
One number for each entry, as −log10 of the molar value.

Memo: `CC(C)[C@@H](CN1CC[C@@](C)(c2cccc(O)c2)[C@@H](C)C1)NC(=O)[C@H]1Cc2ccc(O)cc2CN1` , reported pKi: 5.75

* * *

What Ki was measured for each of the following?
# system_name: 5-HT2b (Homo sapiens, UniProt P41595)
# Sequence (P41595 whole entry): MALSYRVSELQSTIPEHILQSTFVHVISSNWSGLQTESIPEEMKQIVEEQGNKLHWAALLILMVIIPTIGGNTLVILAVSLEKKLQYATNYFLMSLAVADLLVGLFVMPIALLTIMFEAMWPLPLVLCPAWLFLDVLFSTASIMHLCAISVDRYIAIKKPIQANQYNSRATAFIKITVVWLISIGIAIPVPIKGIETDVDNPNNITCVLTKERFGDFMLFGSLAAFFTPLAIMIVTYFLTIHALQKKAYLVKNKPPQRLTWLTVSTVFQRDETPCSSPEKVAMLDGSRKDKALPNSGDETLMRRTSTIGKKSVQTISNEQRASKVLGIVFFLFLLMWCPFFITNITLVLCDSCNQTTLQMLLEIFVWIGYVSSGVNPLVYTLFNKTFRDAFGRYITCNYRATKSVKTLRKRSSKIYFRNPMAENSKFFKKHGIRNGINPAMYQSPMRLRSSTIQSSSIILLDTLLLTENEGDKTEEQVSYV
# test_name: Radioligand displacement, 5-HT2b
# Assay type: binding

smiles_input	Ki
N=C(N)Nc1ccc2[nH]c3c(c2c1)C[C@@]1(O)[C@H]2Cc4ccc(O)c5c4[C@@]1(CCN2CC1CC1)[C@H]3O5	≥ 10 µM

Now for the compound whose Ki we want.
5-HT2b (Homo sapiens, UniProt P41595) assay, compound `Oc1ccc2c3c1O[C@H]1c4[nH]c5c(c4C[C@@]4(O)[C@@H](C2)N(CC2CC2)CC[C@]314)C[C@@]1(O)[C@H]2Cc3ccc(O)c4c3[C@@]1(CCN2CC1CC1)[C@H]5O4` , recorded Ki = ≥ 10 µM

* * *

Please go through the items and note down their Ki.
# system_name: GABAA (BZP)
# test_name: Radioligand displacement, GABAA (BZP)
# condition: [3H] radioligand Flunitrazepam; Rat, Brain

smiles_input	result
N=C(N)Nc1ccc2[nH]c3c(c2c1)C[C@@]1(O)[C@H]2Cc4ccc(O)c5c4[C@@]1(CCN2CC1CC1)[C@H]3O5	≥ 10 µM
CC(C)[C@@H](CN1CC[C@@](C)(c2cccc(O)c2)[C@@H](C)C1)NC(=O)[C@H]1Cc2ccc(O)cc2CN1	≥ 10 µM

Proceeding to the next compound to report its Ki.
The value of Ki measured for the compound `Oc1ccc2c3c1O[C@H]1c4[nH]c5c(c4C[C@@]4(O)[C@@H](C2)N(CC2CC2)CC[C@]314)C[C@@]1(O)[C@H]2Cc3ccc(O)c4c3[C@@]1(CCN2CC1CC1)[C@H]5O4` turned out to be ≥ 10 µM

* * *

# system_name: 5-HT1e (Homo sapiens)
# Sequence (P28566 whole entry): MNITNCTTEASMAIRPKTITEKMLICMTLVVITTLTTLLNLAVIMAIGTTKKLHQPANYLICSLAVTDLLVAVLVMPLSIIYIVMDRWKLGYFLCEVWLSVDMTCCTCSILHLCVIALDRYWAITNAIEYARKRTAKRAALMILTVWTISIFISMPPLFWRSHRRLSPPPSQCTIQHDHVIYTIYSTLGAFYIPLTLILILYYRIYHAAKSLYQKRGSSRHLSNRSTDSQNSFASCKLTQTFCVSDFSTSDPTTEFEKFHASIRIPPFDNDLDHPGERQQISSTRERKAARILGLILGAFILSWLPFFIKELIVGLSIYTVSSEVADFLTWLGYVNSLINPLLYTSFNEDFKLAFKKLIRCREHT
# test_name: Radioligand displacement, 5-HT1e
# Assay type: binding
readout: Ki

smiles_input	system_name	Ki
Oc1ccc2c3c1O[C@H]1c4[nH]c5c(c4C[C@@]4(O)[C@@H](C2)N(CC2CC2)CC[C@]314)C[C@@]1(O)[C@H]2Cc3ccc(O)c4c3[C@@]1(CCN2CC1CC1)[C@H]5O4	5-HT1e (Homo sapiens)	≥ 10 µM

Read the next record carefully.
Given item `N=C(N)Nc1ccc2[nH]c3c(c2c1)C[C@@]1(O)[C@H]2Cc4ccc(O)c5c4[C@@]1(CCN2CC1CC1)[C@H]3O5` , the value recorded as its Ki is ≥ 10 µM

* * *

# system_name: D1 (Homo sapiens)
# test_name: Radioligand displacement, D1
# Type: binding
# condition: [3H] radioligand SCH23390; Human, Cloned; read-out: Ki
readout: Ki

Just so you know, measured Ki for `CC(C)[C@@H](CN1CC[C@@](C)(c2cccc(O)c2)[C@@H](C)C1)NC(=O)[C@H]1Cc2ccc(O)cc2CN1` came out at ≥ 10 µM

* * *

# system_name: H4 (Homo sapiens)
# Sequence (Q9H3N8 whole entry): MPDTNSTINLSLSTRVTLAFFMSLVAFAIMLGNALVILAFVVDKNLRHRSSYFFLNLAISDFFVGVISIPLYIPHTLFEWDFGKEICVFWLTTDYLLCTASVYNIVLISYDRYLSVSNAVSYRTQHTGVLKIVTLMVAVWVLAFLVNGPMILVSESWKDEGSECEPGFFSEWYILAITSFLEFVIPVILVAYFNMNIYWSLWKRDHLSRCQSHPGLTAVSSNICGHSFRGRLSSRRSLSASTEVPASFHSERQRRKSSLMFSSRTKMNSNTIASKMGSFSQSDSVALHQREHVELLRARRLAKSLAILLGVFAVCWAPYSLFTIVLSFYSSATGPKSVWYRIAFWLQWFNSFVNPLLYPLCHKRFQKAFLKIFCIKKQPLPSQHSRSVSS
# test_name: Radioligand displacement, H4
# Type: binding
# condition: [3H] radioligand Histamine; Human, Cloned; read-out: Ki
pKi: −log10 of the molar value.
readout: pKi

For CC(C)[C@@H](CN1CC[C@@](C)(c2cccc(O)c2)[C@@H](C)C1)NC(=O)[C@H]1Cc2ccc(O)cc2CN1 [JDTic] the molecule record lists pKi as ≤ 5.00

* * *

Please respond with reported Ki for every item in the list.
# system_name: 5-HT1b (Homo sapiens)
# Sequence (P28222 whole entry): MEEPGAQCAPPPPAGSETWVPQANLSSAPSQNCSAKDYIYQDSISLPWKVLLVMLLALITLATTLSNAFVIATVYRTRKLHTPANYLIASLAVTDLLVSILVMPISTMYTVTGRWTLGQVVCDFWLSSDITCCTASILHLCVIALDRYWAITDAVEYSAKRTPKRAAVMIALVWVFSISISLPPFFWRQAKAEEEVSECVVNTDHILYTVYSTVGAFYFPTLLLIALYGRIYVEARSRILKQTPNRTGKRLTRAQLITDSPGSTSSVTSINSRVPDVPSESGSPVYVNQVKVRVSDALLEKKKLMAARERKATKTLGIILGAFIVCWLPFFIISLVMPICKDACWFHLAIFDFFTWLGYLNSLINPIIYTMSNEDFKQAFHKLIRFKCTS
# test_name: Radioligand displacement, 5-HT1b
# Format: binding

smiles_input	readout	result
Oc1ccc2c3c1O[C@H]1c4[nH]c5c(c4C[C@@]4(O)[C@@H](C2)N(CC2CC2)CC[C@]314)C[C@@]1(O)[C@H]2Cc3ccc(O)c4c3[C@@]1(CCN2CC1CC1)[C@H]5O4	Ki	≥ 10 µM

Recorded Ki (molecule `N=C(N)Nc1ccc2[nH]c3c(c2c1)C[C@@]1(O)[C@H]2Cc4ccc(O)c5c4[C@@]1(CCN2CC1CC1)[C@H]3O5` ): ≥ 10 µM

* * *

Hi there, I'd appreciate the recorded pKi for every entry that follows.
# system_name: UniProt:P21918
# Sequence (P21918 whole entry): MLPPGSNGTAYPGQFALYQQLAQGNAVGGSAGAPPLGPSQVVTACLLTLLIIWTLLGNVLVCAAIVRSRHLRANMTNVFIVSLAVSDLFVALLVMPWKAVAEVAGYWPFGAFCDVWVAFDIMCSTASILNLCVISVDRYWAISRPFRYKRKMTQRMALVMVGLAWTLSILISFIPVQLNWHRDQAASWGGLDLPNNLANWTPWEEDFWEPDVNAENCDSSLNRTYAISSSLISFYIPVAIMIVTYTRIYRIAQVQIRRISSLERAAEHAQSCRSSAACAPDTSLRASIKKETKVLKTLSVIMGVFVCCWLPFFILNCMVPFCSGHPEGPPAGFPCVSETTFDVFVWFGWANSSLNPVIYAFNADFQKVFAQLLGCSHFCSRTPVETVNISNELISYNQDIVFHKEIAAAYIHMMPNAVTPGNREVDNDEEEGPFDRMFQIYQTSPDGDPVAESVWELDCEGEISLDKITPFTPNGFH
# test_name: Radioligand displacement, D5
# Assay type: binding
# condition: Ki, [3H] radioligand SCH23390; Human, Cloned
Numbers only, as −log10 of the molar value.

smiles_input	pKi
N=C(N)Nc1ccc2[nH]c3c(c2c1)C[C@@]1(O)[C@H]2Cc4ccc(O)c5c4[C@@]1(CCN2CC1CC1)[C@H]3O5	5.09

The measured pKi associated with `Oc1ccc2c3c1O[C@H]1c4[nH]c5c(c4C[C@@]4(O)[C@@H](C2)N(CC2CC2)CC[C@]314)C[C@@]1(O)[C@H]2Cc3ccc(O)c4c3[C@@]1(CCN2CC1CC1)[C@H]5O4` reads 5.41

* * *

# system_name: noradrenaline transporter (NET) (Homo sapiens, UniProt P23975)
# Sequence (P23975 whole entry): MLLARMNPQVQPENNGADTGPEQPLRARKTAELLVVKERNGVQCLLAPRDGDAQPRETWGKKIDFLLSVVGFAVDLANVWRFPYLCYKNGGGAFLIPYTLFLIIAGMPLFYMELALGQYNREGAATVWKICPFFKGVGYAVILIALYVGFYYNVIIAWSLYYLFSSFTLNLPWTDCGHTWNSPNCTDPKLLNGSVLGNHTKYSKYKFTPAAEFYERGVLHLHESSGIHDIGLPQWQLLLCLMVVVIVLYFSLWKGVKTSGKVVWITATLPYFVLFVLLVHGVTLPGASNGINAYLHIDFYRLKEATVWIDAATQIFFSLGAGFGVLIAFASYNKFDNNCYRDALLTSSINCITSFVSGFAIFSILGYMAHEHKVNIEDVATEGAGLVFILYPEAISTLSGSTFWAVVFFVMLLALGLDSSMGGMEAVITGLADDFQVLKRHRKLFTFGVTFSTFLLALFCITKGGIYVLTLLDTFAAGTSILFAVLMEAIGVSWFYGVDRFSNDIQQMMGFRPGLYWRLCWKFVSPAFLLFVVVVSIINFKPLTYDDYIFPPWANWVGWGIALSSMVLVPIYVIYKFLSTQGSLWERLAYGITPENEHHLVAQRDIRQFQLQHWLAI
# test_name: Inhibition of noradrenaline transporter, fluorescent dye uptake
# Format: cell-based
# condition: 95% CI = 0.5 to 2.6 µM; read-out: IC50, inhibition of noradrenaline transport
readout: pIC50
Give bare numbers, as −log10 of the molar value.

For this molecule ( CC(C)[C@@H](CN1CC[C@@](C)(c2cccc(O)c2)[C@@H](C)C1)NC(=O)[C@H]1Cc2ccc(O)cc2CN1 [JDTic] ), measured pIC50 is 5.96

* * *

# system_name: σ1 (Rattus norvegicus)
# Sequence (Q9R0C9 whole entry): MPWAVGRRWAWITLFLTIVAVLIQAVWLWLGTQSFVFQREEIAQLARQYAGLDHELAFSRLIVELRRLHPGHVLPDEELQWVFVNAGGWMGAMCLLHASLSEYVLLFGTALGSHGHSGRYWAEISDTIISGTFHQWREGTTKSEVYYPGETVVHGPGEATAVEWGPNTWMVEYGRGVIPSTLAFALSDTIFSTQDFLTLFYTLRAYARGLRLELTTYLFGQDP
# test_name: Radioligand displacement, σ1
# Type: binding
# condition: [3H] radioligand Pentazocine(+); Rat, Brain; read-out: Ki
readout: Ki (µM)
Give bare numbers, in µM.

Summary for this compound, `CC(C)[C@@H](CN1CC[C@@](C)(c2cccc(O)c2)[C@@H](C)C1)NC(=O)[C@H]1Cc2ccc(O)cc2CN1` : Ki is 1.88

* * *

# system_name: α1A-adrenoceptor (α1A-AR) (Homo sapiens)
# test_name: Radioligand displacement, α1A
# Format: binding
# condition: Ki, [3H] radioligand Prazosin; Human, Cloned
readout: Ki (µM)
One number for each entry, in µM.

In plain terms, N=C(N)Nc1ccc2[nH]c3c(c2c1)C[C@@]1(O)[C@H]2Cc4ccc(O)c5c4[C@@]1(CCN2CC1CC1)[C@H]3O5 [GNTI, 5′-guanidinonaltrindole] has a documented Ki of 9.5

* * *

# system_name: β1 (Homo sapiens)
# Sequence (P08588 whole entry): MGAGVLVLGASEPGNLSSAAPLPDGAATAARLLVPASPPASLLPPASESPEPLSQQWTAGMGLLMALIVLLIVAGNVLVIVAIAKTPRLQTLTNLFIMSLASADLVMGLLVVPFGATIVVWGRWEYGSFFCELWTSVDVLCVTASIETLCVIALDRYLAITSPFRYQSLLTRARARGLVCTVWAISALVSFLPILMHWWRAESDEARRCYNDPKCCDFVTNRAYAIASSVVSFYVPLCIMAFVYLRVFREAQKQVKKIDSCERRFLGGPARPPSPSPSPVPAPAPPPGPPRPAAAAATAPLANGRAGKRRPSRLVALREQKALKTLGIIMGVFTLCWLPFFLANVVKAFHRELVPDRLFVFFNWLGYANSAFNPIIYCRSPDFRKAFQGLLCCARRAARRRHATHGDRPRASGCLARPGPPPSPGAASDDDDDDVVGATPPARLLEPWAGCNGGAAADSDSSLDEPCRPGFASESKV
# test_name: Radioligand displacement, β1
# Type: binding
# condition: [3H] radioligand CGP12177; Human, Heart; read-out: Ki
pKi: −log10 of the molar value.
readout: pKi

Assay β1 (Homo sapiens), sample `CC(C)[C@@H](CN1CC[C@@](C)(c2cccc(O)c2)[C@@H](C)C1)NC(=O)[C@H]1Cc2ccc(O)cc2CN1` , pKi read: ≤ 5.00

* * *

# system_name: α2A (Homo sapiens, UniProt P08913)
# Sequence (P08913 whole entry): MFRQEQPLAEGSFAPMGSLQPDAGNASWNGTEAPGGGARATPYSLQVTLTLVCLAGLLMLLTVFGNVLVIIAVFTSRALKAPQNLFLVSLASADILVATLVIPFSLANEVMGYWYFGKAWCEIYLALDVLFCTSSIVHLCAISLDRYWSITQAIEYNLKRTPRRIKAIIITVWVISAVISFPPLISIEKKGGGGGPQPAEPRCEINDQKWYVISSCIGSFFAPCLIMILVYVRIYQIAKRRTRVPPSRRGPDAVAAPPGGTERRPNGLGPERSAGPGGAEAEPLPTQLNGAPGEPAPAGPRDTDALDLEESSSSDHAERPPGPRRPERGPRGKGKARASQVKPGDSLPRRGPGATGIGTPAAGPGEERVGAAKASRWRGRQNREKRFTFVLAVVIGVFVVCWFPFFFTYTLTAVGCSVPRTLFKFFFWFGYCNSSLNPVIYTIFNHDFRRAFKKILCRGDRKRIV
# test_name: Radioligand displacement, α2A
pKi: −log10 of the molar value.
readout: pKi

pKi for α2A (Homo sapiens, UniProt P08913) with input `CC(C)[C@@H](CN1CC[C@@](C)(c2cccc(O)c2)[C@@H](C)C1)NC(=O)[C@H]1Cc2ccc(O)cc2CN1` equals ≤ 5.00

* * *

# test_name: Caco-2 cell monolayer permeation
# condition: human, Caco-2, pH 7.4
I'd appreciate it if you could supply Papp B→A at 120 min values for the items below.
Form field: result (number plus unit)

compound	Papp B→A at 120 min
N=C(N)Nc1ccc2[nH]c3c(c2c1)C[C@@]1(O)[C@H]2Cc4ccc(O)c5c4[C@@]1(CCN2CC1CC1)[C@H]3O5	270 ×10⁻⁶ cm/s
O=C1CC[C@@]2(O)[C@H]3Cc4ccc(O)c5c4[C@@]2(CCN3CC2CC2)[C@H]1O5 [Naltrexone]	270 ×10⁻⁶ cm/s

Batch: Papp B→A at 120 min for all items listed.
1. CC(C)[C@@H](CN1CC[C@@](C)(c2cccc(O)c2)[C@@H](C)C1)NC(=O)[C@H]1Cc2ccc(O)cc2CN1
2. Oc1ccc2c3c1O[C@H]1c4[nH]c5c(c4C[C@@]4(O)[C@@H](C2)N(CC2CC2)CC[C@]314)C[C@@]1(O)[C@H]2Cc3ccc(O)c4c3[C@@]1(CCN2CC1CC1)[C@H]5O4

1. 310 ×10⁻⁶ cm/s
2. 310 ×10⁻⁶ cm/s

* * *

# system_name: H1 (Homo sapiens)
# Sequence (P35367 whole entry): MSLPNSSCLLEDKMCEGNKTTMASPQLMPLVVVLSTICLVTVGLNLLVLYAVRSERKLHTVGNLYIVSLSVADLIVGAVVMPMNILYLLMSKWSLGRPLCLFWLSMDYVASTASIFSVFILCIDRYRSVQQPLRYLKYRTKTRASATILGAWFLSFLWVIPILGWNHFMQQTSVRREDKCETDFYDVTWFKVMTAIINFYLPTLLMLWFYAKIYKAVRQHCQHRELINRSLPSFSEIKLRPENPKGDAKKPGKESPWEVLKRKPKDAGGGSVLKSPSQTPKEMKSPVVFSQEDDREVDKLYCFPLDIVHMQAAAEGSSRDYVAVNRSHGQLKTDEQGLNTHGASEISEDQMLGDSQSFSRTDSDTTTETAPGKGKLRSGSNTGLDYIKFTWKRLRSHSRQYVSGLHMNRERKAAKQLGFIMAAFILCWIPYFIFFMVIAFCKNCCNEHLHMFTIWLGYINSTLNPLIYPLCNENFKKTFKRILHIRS
# test_name: Radioligand displacement, H1
# Type: binding
# condition: [3H] radioligand Pyrilamine; Human, Cloned; read-out: Ki
pKi: −log10 of the molar value.
readout: pKi

Measured pKi, CC(C)[C@@H](CN1CC[C@@](C)(c2cccc(O)c2)[C@@H](C)C1)NC(=O)[C@H]1Cc2ccc(O)cc2CN1 [JDTic] : ≤ 5.00

Hey, just so you know, these numbers are from paper PMC3747596.
